Taken from ChEMBL document CHEMBL4376805.

Tested on: Plasmodium falciparum
Assay: Antimalarial activity against synchronized Plasmodium falciparum K1 ring form infected in human erythrocytes assessed as reduction in parasite growth after 72 hrs by Hoechst 33258 staining based fluorescence assay
Format: functional, organism-based
Conditions: K1, 72 h
recorded.endpoint: pIC50
One number for each entry, as −log10 of the molar value.

Nc1nccc2c1ncn2C[C@H](CO)OCP(=O)(O)O :: 4.00
Nc1ncnc2c1ncn2C[C@@H](CO)OCP(=O)(O)O :: 6.74

Consider now this further compound.
The value of pIC50 measured for the compound `Nc1nc(N)c2ncn(C[C@@H](CO)OCP(=O)(O)O)c2n1` turned out to be 5.68

====

Molecular target: Purine nucleoside phosphorylase (Homo sapiens, UniProt P00491)
Sequence (P00491 whole entry): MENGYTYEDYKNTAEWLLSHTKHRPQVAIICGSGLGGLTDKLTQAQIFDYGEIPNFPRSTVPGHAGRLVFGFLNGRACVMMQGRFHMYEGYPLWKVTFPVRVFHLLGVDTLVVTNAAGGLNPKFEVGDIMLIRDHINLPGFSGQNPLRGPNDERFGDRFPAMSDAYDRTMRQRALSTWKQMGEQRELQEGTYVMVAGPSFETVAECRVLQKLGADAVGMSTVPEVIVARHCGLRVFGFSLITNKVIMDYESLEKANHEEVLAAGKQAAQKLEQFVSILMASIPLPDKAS
Experiment: Inhibition of human PNP expressed in Escherichia coli assessed as reduction in uric acid formation by spectrophotometric method
recorded.endpoint: Ki (nM)
Numbers only, in nM.

Lab note: `CSC[C@H]1N[C@@H](c2c[nH]c3c(=O)[nH]cnc23)[C@H](O)[C@@H]1O` gave Ki of 303

====

Test system: Plasmodium falciparum
Test: Antimalarial activity against Plasmodium falciparum FCQ-27 isolate infected in erythrocytes assessed as reduction in [G-3H]Hypoxanthine incorporation incubated for 24 hrs followed by addition of [G-3H]Hypoxanthine and measured after 18 to 20 hrs by scintillation counting method
Assay type: functional
For each record, write down the corresponding IC37.

Example entries begin here.
Nc1nc(Cl)nc2c1ncn2[C@@H]1O[C@H](CO)[C@@H](O)[C@H]1O :: 11 µM
CNc1ncnc2c1ncn2[C@H]1C[C@H](O)[C@@H](CO)O1 :: 10 µM
Nc1ncnc2c1ccn2[C@@H]1O[C@H](CO)[C@@H](O)[C@H]1O :: 0.7 µM

Now take the following compound into account.
Item `NC(=O)c1cn([C@@H]2O[C@H](CO)[C@@H](O)[C@H]2O)c2ncnc(N)c12` was tested on Plasmodium falciparum; the reported IC37 is 0.3 µM

====

Assignment: determine reported pIC50 for the given compounds.
System: Plasmodium falciparum
Test: Antimalarial activity against synchronized Plasmodium falciparum K1 ring form infected in human erythrocytes assessed as reduction in parasite growth after 72 hrs by Hoechst 33258 staining based fluorescence assay
Format: functional, organism-based
Settings: K1, 72 h
Numbers only, as −log10 of the molar value.

Completed entries (count: 3):
CC(C)(C)C(=O)OCOP(=O)(COCCn1cnc2c(N)ncnc21)OCOC(=O)C(C)(C)C :: 4.43
Nc1ncnc2c1ncn2C[C@H](CO)OCP(=O)(O)O :: 5.22
Nc1nc(N)c2ncn(C[C@H](CO)OCP(=O)(O)O)c2n1 :: 4.82

Now consider a different compound.
Noted for `Nc1nccc2c1ncn2C[C@@H](CO)OCP(=O)(O)O` : its pIC50 reads 6.54
